Tested on: HTT mRNA
Experiment: Splicing RT-qPCR assay, HTT canonical (CJ) and alternative (AJ) junction mRNA
Format: cell-based, human
Conditions: Homo sapiens, canonical junction mRNA, qPCR panel; read-out: HTT CJ (decrease in CJ mRNA levels, IC50)
Can you tell me IC50 for the items I'm about to list?

Request: # lookup: IC50 of CN(C)C1CCN(c2cnc3nc(-c4cc5cn(C)nc5cc4O)ccc3c2)CC1 [Compound 316]
Response: 1 to 10 µM

Request: Quick one: IC50 of Cc1c(O)c(-c2ccc3c(Cl)c(N4C[C@H](C)N[C@@H](C)C4)cnc3n2)cc2cn(C)nc12 [Compound 394] ?
Response: 0.1 to 1 µM

Request: Quick check: IC50 of Cc1c(O)c(-c2cc(Cl)c3cc(N4C[C@@H](C)NC5(CC5)C4)cnc3n2)cc2cn(C)nc12 [Compound 399] ?
Response: 1 to 10 µM

Request: Tell me the measured IC50 of Cc1c(O)c(-c2ncc3cc(N4C[C@@H](C)N[C@@H](C)C4)cnc3n2)cc2cn(C)nc12 [Compound 214] , please.
Response: 0.1 to 1 µM

Request: State the recorded IC50 for this entry: Cc1cn2cc(-c3ccc4cc(N5C[C@@H](C)N[C@@H](C)C5)cnc4n3)cc(F)c2n1 [Compound 350]
Response: > 10 µM

Request: Look at this compound and give its reported IC50. Cc1cn2nc(-c3ccc4cc(N5C[C@@H](C)N[C@@H](C)C5)cnc4n3)cc(C)c2n1 [Compound 330]
Response: 0.1 to 1 µM

Request: Quick one: IC50 for Cn1cc2cc(-c3ccc4cc(N5CC[C@@H](NC(C)(C)C)C5)cnc4n3)c(O)cc2n1 [Compound 199] ?
Response: 1 to 10 µM

----------
System: K562 cells
Experiment: Cell viability, Cell Titer Glo 2.0 assay, K562
Conditions: 72 hours
Structures can show the parent of a compound that is named as a salt.
PROPERTY_NAME: Effect on Cell Viability, K562

Some molecules with recorded Effect on Cell Viability, K562:
CN[C@H]1CN(c2cnc3nc(-c4cc5cn(C)nc5c(C)c4O)ccc3c2)C[C@@H]1C :: A (<100 nM)
Cc1c(O)c(-c2ccc3cc(N4CCC(NCC5CC5)C4)cnc3n2)cc2cn(C)nc12 (stereo in doubt) [Compound 119] :: A (<100 nM)
CN1CCC[C@H]2CN(c3cnc4nc(-c5cc6cn(C)nc6cc5O)cc(Cl)c4c3)C[C@H]21 :: B (100-1000 nM)
CN[C@@H]1CCN(c2cnc3nc(-c4cc5cn(C)nc5c(C)c4O)ncc3c2)C1 [Compound 107, hydrochloride] :: A (<100 nM)
Cc1cn2nc(-c3cc(Cl)c4cc(N5C[C@H](C)NC6(CC6)C5)cnc4n3)cc(C)c2n1 :: C (1000-9999 nM)

Request: Quick check: Effect on Cell Viability, K562 of CN[C@H]1CCN(c2cnc3nc(-c4cc5cn(C)nc5c(C)c4O)ncc3c2)C1 ?
Response: A (<100 nM)

Request: Which Effect on Cell Viability, K562 reading was recorded for the molecule Cn1cc2cc(-c3cnc4cc(C5CCNCC5)ccc4n3)c(O)c(F)c2n1 ?
Response: A (<100 nM)

Request: Looking for the measured Effect on Cell Viability, K562 of Cc1cn2nc(-c3cc(Cl)c4cc(N5CCC(N6CCC6)CC5)cnc4n3)cc(C)c2n1 , can you help?
Response: B (100-1000 nM)

Request: Please look up its Effect on Cell Viability, K562: CNC1CCN(c2cnc3nc(-c4cc(F)c5nc(C)cn5c4)ccc3c2)C1 (stereo not drawn)
Response: B (100-1000 nM)

Request: I am curious: what Effect on Cell Viability, K562 value has been reported for CN[C@@H]1CN(c2cnc3nc(-c4cc5cn(C)nc5c(C)c4O)ccc3c2)C[C@@H]1C ?
Response: A (<100 nM)
